Assay: Probe fluorescence ratio response to arachidonic acid relative to ADIFAB2
Format: binding
Settings: arachidonic acid; response relative to ADIFAB2
METRIC NAME: DR/DR AA
A bare number is all that is needed in reply.

Example molecules with recorded DR/DR AA:
31R1, 72A (protein, listed as Rattus norvegicus, PEPTIDE (1)...(131) wild-type rat intestinal fatty acid binding protein) AFDGTWKVDRNENYEKFMEKMGINVVKRKLRAHDNLKLTITQEGNKFTVKESSNFRNIDVVFELGVDFAYSAADGTELTGTWTMEGNKLVGKFKRVDNGKELIAVREISGNELIQTYTYEGVEAKRIFKKE = 0.25
104N1, 72A (protein, listed as Rattus norvegicus, PEPTIDE (1)...(131) wild-type rat intestinal fatty acid binding protein) AFDGTWKVDRNENYEKFMEKMGINVVKRKLGAHDNLKLTITQEGNKFTVKESSNFRNIDVVFELGVDFAYSAADGTELTGTWTMEGNKLVGKFKRVDNGKELINVREISGNELIQTYTYEGVEAKRIFKKE = 1.14

Note: attention shifts to another entry.
Specify measured DR/DR AA for 104Y, 72A (protein, listed as Rattus norvegicus, PEPTIDE (1)...(131) wild-type rat intestinal fatty acid binding protein) AFDGTWKVDRNENYEKFMEKMGINVVKRKLGAHDNLKLTITQEGNKFTVKESSNFRNIDVVFELGVDFAYSAADGTELTGTWTMEGNKLVGKFKRVDNGKELIYVREISGNELIQTYTYEGVEAKRIFKKE .
0.364
